meta.source: PubChem BioAssay (Tox21)

test: qHTS assay to identify small molecule antagonists of the thyroid receptor (TR) signaling pathway (AID 743065); conditions: GH3.TRE-Luc, T3-stimulated luciferase inhibition, 23.5 h; series mostly up to 70.3 µM; further: nearly all actives have a fitted effect of over 55% in size; further: potency means the concentration at half of the fitted maximal effect
Inconclusive results are not listed. The source made the active and inactive calls. The call rests on the fitted dose curve; in most records, active means well fitted inhibition curve with a large enough effect in the repeat runs; inconclusive means weak or mixed curves; inactive means no such curve, though single readings can be large or run the other way.
RECORDED METRIC: Potency

# input // returns reported Potency for input CC(C)(C)N(CCO)CCO
# output inactive

# input Next: CCCCCCCCCCCCI
# output inactive

# input Next: C[C@H](O)C(=O)Nc1c(I)c(C(=O)NC(CO)CO)c(I)c(C(=O)NC(CO)CO)c1I
# output inactive

# input Next: CC(C)[C@H](N)C(=O)OCCOCn1cnc2c(=O)[nH]c(N)nc21
# output inactive

# input Next: O=C(O)c1ccccc1S
# output inactive

# input Next: NS(=O)(=O)c1cc2c(cc1Cl)NC(CSCc1ccccc1)=NS2(=O)=O
# output inactive

# input Next: OCC(O)[C@@H](O)[C@H](O)[C@H](O)CO[C@H]1O[C@H](CO)[C@@H](O)[C@H](O)[C@H]1O (some centres undefined)
# output inactive

# input Next: OC/C=C/c1ccccc1
# output inactive

Others:
# input // returns reported Potency for input C/C=C1\C(=O)C[C@H]2[C@@H]3CCC4=CC(=O)CC[C@]4(C)[C@H]3CC[C@]12C
# output 30 µM (active)

# input Next: Cc1nc(-c2ccc(OCC(C)C)c(C#N)c2)sc1C(=O)O
# output 13.3 µM (active)

# input Next: CCCc1ccc(N)cc1
# output inactive

# input Next: CCCCC=O
# output inactive

# input Next: CCN(CC)S(=O)(=O)c1ccc(C(=O)O)cc1
# output inactive

# input Next: CCCCCCCCCCCl
# output inactive

====

Test: A CellTox Green Cytotoxicity Assay to monitor cytotoxicity in HEK293 cells - 0 hour (AID 1224869); further: on the % scale 0 is the no-effect control and ±100 the full control effect; nearly all actives have a fitted effect of over 50% in size
Conditions: CellTox Green fluorescence; series mostly up to 76.8 µM
Text: National Center for Advancing Translational Sciences [NCATS] NIH Chemical Genomics Center [NCGC] U.S. Environmental Protection Agency [EPA] National Institutes of Environmental Health Sciences [NIEHS] National Toxicology Program [NTP] Cell-based models are critical for drug discovery. […] Viable cells produce no appreciable increases in fluorescence. Therefore, the fluorescence signal produced by the binding interaction with dead cell DNA is proportional to cytotoxicity. […]
Activity calls are given as the source filed them. Calls come from the whole dose curve; as a rule, active = well fitted activation curve with a large enough effect in the repeat runs; inconclusive = weak or mixed curves; inactive = flat fitted curve, though single readings scatter.
RECORDED METRIC: cytotoxicity

Reference set, count: 5
# input // returns reported cytotoxicity for input CC(C)N1C(=O)c2ccccc2C1=O
# output inactive

# input Next: COc1cc(O)cc(O)c1
# output inactive

# input Next: O=C(O)/C=C/c1ccc(/C=C/C(=O)O)cc1
# output inactive

# input Next: O=C(O)Cc1cc(I)c(Oc2cc(I)c(O)c(I)c2)c(I)c1
# output inactive

# input Next: Cn1ccc2cc3c(cc21)CCN3C(=O)Nc1cccnc1
# output -3.51% [at 15.8 µM] (inactive)

Others:
# input // returns reported cytotoxicity for input CCC(C)OC(=O)N1CCCCC1CCO (stereo unspecified)
# output inactive

# input Next: O=[N+]([O-])c1ccc(Oc2ccc([N+](=O)[O-])cc2)cc1
# output inactive

# input Next: CCCCCCCCCCCCCCCCCCOCC(O)CO (stereo unspecified)
# output inactive

# input Next: CCC(=O)c1cccc(Cl)c1
# output inactive

# input Next: O=C(O)c1ccc[n+]([O-])c1
# output inactive

# input Next: CNC(=O)c1c(I)c(NC(=O)CCCCC(=O)Nc2c(I)c(C(=O)O)c(I)c(C(=O)NC)c2I)c(I)c(C(=O)O)c1I
# output inactive

# input Next: NC(N)=NS(=O)(=O)c1ccc(N)cc1
# output inactive

# input Next: Cc1ccccc1C(=O)O
# output inactive

====

assay: qHTS assay to identify small molecule agonists of the estrogen related receptor (ERR) signaling pathway from Tox21 library (AID 1224849); details: ERR reporter cell line, ONE-Glo luciferase, 18 h; at 92.4 µM (top of the series) unless noted; further: on the % scale 0 is the no-effect control and ±100 the full control effect; nearly all actives have a fitted effect of over 15% in size
Calls of active or inactive are those of the source. The call rests on the fitted dose curve.
One label from this list, please: active, inactive

# input Please state the recorded outcome for this molecule: CCOC(=O)[C@H](CCc1ccccc1)N[C@@H](C)C(=O)N1CCC[C@H]1C(=O)O
# output inactive

# input Next: CCCCCCOC(=O)CC(CC(=O)OCCCCCC)(OC(=O)CCC)C(=O)OCCCCCC
# output inactive

# input Next: Cc1c(C)n(CCN(C)C)c2ccc(C(=O)OCCN(C)C)cc12
# output inactive

# input Next: CCCCCC[C@@H](CCC)C(=O)O
# output inactive

# input Next: CCC(C)(C)C1CCC(OC)CC1 (stereo not drawn)
# output inactive

# input Next: CC(C)c1ccc2oc3nc(N)c(C(=O)O)cc3c(=O)c2c1
# output active

# input Next: CC12CCC(CC1=O)C2(C)C (stereo not drawn)
# output inactive

# input Next: Oc1ccc2c(c1)OC[C@@H](N1CCC(O)(c3ccc(F)cc3)CC1)[C@H]2O
# output active

# input Next: CN(C)N=Nc1ccccc1
# output inactive

# input Next: CC1(C)SC(C)(C)SC(C)(C)S1
# output inactive

# input Next: CCCCc1ccc2cccc(S(=O)(=O)O)c2c1
# output inactive

# input Next: COC(=O)CCCCCCCCC(=O)OC
# output inactive

# input Next: NC(=O)c1c(Cl)cccc1Cl
# output inactive

# input Next: Cc1c(F)cc2c(=O)c(C(=O)O)cn3c2c1CCC3C (stereo not drawn)
# output inactive

# input Next: COC(=O)[C@H]1[C@H]2C[C@@H]3c4[nH]c5cc(OC)ccc5c4CCN3C[C@H]2C[C@@H](OC(=O)COc2ccc(OC)cc2)[C@@H]1OC
# output inactive

# input Next: CC(C)(C)C(=O)/C=C/c1ccc(Cl)cc1
# output inactive

# input Next: CC(C)(O)Cc1ccccc1
# output inactive

# input Next: CC1CCN(CCCC(=O)c2ccc(F)cc2)CC1
# output inactive

# input Next: C1=C\CC/C=C\CC/C=C\CC/1
# output inactive

# input Next: C=C(C)[C@@H]1CCC2=CC(=O)C[C@@H](C)[C@]2(C)C1
# output inactive

# input Next: CCCCCCCCN(C)CCCCCCCC
# output inactive

# input Next: COc1ccc(COC=O)cc1
# output inactive

# input Next: CCCC=O
# output inactive

# input Next: CCCCCCCCCCCl
# output inactive

# input Next: OC[C@H]1O[C@@H]2O[C@H]3[C@H](O)[C@@H](O)[C@@H](O[C@H]4[C@H](O)[C@@H](O)[C@@H](O[C@H]5[C@H](O)[C@@H](O)[C@@H](O[C@H]6[C@H](O)[C@@H](O)[C@@H](O[C@H]7[C@H](O)[C@@H](O)[C@@H](O[C@H]8[C@H](O)[C@@H](O)[C@@H](O[C@H]9[C@H](O)[C@@H](O)[C@@H](O[C@H]1[C@H](O)[C@H]2O)O[C@@H]9CO)O[C@@H]8CO)O[C@@H]7CO)O[C@@H]6CO)O[C@@H]5CO)O[C@@H]4CO)O[C@@H]3CO
# output inactive

# input Next: O=[N+]([O-])c1ccc(Oc2ccc([N+](=O)[O-])cc2)cc1
# output inactive

# input Next: CCC(C(=O)NC(N)=O)c1ccccc1 (stereo not drawn)
# output inactive

# input Next: CCCCCCCCC=O
# output inactive

====

Assign activity change, positive = activation to each entry below.
assay: qHTS assay to identify small molecule agonists of the estrogen related receptor (ERR) signaling pathway from Tox21 library (AID 1224849); details: ERR reporter cell line, ONE-Glo luciferase, 18 h; at 92.4 µM (top of the series) unless noted; further: on the % scale 0 is the no-effect control and ±100 the full control effect; nearly all actives have a fitted effect of over 15% in size
The source made the active and inactive calls. Calls follow the shape of the full dose curve.

# input // returns reported activity change, positive = activation for input O=S(=O)(c1cccc2cnccc12)N1CCCNCC1
# output -26.8% [at 42.5 µM] (inactive)

# input Next: CNc1ncnc2nc[nH]c12
# output 1.91% (inactive)

# input Next: COc1ccc2cc(C=O)ccc2c1
# output 3.74% [at 42.5 µM] (inactive)

# input Next: CCO[Si](CCCN=C=O)(OCC)OCC
# output -6.45% (inactive)

# input Next: O=C(O)c1cccc(C(=O)O)n1
# output 2.2% (inactive)

# input Next: CCCCCCCCCCCCCCC
# output 4.59% (inactive)

# input Next: CC(C)CCCC(C)NCCC(C)C (stereo unspecified)
# output 1.21% [at 42.5 µM] (inactive)

# input Next: CCCCC1CCCCC(=O)O1 (stereo unspecified)
# output 0.974% (inactive)

# input Next: c1cc(CN2CCCCC2)cc(OCCCNc2nc3ccccc3s2)c1
# output -31.8% [at 42.5 µM] (inactive)

# input Next: CCCCN(CCO)CCO
# output 3.71% (inactive)

# input Next: c1ccc(CCCc2ccccn2)cc1
# output 34.3% (active)

# input Next: CCCC(C)C(=O)O (stereo unspecified)
# output -46.3% (inactive)

# input Next: CO
# output -0.295% (inactive)

# input Next: CN(C)C(=O)Nc1ccccc1
# output 3.55% (inactive)

# input Next: COc1cccc(Br)c1
# output 0.21% (inactive)

# input Next: COC(=O)C1=C(C)NC(C)=C(C(=O)OCC(C)=O)C1c1ccccc1[N+](=O)[O-] (stereo unspecified)
# output -8.69% [at 42.5 µM] (inactive)
